Origin of values: ChEMBL document CHEMBL4513216

Experimental details: Toxicity liver stage against HepG2, at 10uM
Type: cell-based
Set-up: test concentration 10 uM, cell line HepG2-A16-CD81EGFP
Measurement conditions: human, HepG2-A16-CD81EGFP cells; read-out: INHIBITION
# key: entry, value: cytotoxicity at 10 µM
Give the value in % but do not write % after it.

Solved entries:
Compound | Measure unit | cytotoxicity at 10 µM
CCn1cc(NC(=O)NCCc2ccc3c(c2)OCO3)cn1 | % | 2.04
COc1cc(C)c(S(=O)(=O)CC(=O)N(C)C2CC2)cc1OC | % | -3.81
O=C(Nc1ccc2scnc2c1)N1CCN([C@H]2CCCC[C@@H]2O)CC1 | % | -53.6

[Q] Return cytotoxicity at 10 µM for the following compound: O=C(c1ccoc1)N1CCOC2(COCCN(CC3CC3)C2)C1 (centres undefined)
[A] 7.57

[Q] Return cytotoxicity at 10 µM for the following compound: CC(NC(=O)N1CCc2ccccc2C1)c1nncn1C (centres undefined)
[A] -6.98

[Q] Return cytotoxicity at 10 µM for the following compound: Cc1nnc(C2CCN(c3ccc(F)cc3)CC2)o1
[A] 0.207
